System: E. coli TESEC Mtb Alr
Test: growth (OD600 after 10 h); higher = more growth (less inhibition)
Details: arabinose 100000 nM; compound 0.1 mM; raw OD600 reference: median of DMSO wells 0.201, cell-free background 0.041
Where a name gives a salt, the structure may show the parent alone.
Listed here are compounds together with their documented growth.

Compound	growth
Cc1nc2n(c(=O)c1CCN1CCC(c3noc4cc(F)ccc34)CC1)CCCC2	0.175
Cc1cc(C(C)(C)CC(C)(C)C)ccc1OCCOCC[N+](C)(C)Cc1ccccc1 [Methyl benzethonium chloride]	0.0489
CC(C)/N=c1\cc2n(-c3ccc(Cl)cc3)c3ccccc3nc-2cc1Nc1ccc(Cl)cc1	0.225
CN1CCN2c3ncccc3Cc3ccccc3C2C1 (configuration not stated)	0.225
Cc1ccc(/C(=C\CN2CCCC2)c2ccccn2)cc1 [Triprolidine hydrochloride]	0.213
Nc1nc(=O)c2nc(CNc3ccc(C(=O)N[C@@H](CCC(=O)O)C(=O)O)cc3)cnc2[nH]1	0.244
Cc1oncc1C(=O)Nc1ccc(C(F)(F)F)cc1 [Leflunomide]	0.138
CC(C)NC[C@@H](O)COc1ccc(CC(N)=O)cc1 [(R)-(+)-Atenolol]	0.221
O=C(O)Cc1sc(-c2ccccc2)nc1-c1ccc(Cl)cc1	0.165
COc1cc(C(=O)N2CCOCC2)cc(OC)c1OC	0.22
CC(=O)N[C@@H](CC(C)C)C(=O)O	0.219
CCOc1ccc(NC(C)=O)cc1	0.231
O=C(O)c1cn(C2CC2)c2cc(N3CCNCC3)c(F)cc2c1=O [Ciprofloxacin hydrochloride monohydrate]	0.0402
Cn1c(=O)c2[nH]cnc2n(C)c1=O	0.196
COc1cc2nc(N3CCN(C(=O)C4CCCO4)CC3)nc(N)c2cc1OC (configuration not stated) [Terazosin hydrochloride]	0.139
CC1CCc2cc(F)cc3c(=O)c(C(=O)O)cn1c23 (configuration not stated)	0.0452
Cc1cc(C2CCCCC2)n(O)c(=O)c1	0.0447

###

System: E. coli TESEC Mtb Asd
Assay: growth (OD600 after 10 h); higher = more growth (less inhibition)
Details: arabinose induction (level): Low; compound 0.1 mM; raw OD600 reference: median of DMSO wells 0.417, cell-free background 0.041
Structures can show the parent of a compound that is named as a salt.
Listed next: entries and their corresponding growth.

Compound	growth
Cn1ccnc1S	0.417
CNC(=C[N+](=O)[O-])NCCSCc1ccc(CN(C)C)o1 [Ranitidine hydrochloride]	0.455
CN[C@H](CC(C)C)C(=O)N[C@H]1C(=O)N[C@@H](CC(N)=O)C(=O)N[C@H]2C(=O)N[C@H]3C(=O)N[C@H](C(=O)N[C@H](C(=O)O)c4cc(O)cc(O)c4-c4cc3ccc4O)[C@H](O)c3ccc(c(Cl)c3)Oc3cc2cc(c3O[C@@H]2O[C@H](CO)[C@@H](O)[C@H](O)[C@H]2O[C@H]2C[C@](C)(N)[C@H](O)[C@H](C)O2)Oc2ccc(cc2Cl)[C@H]1O [Vancomycin hydrochloride]	0.0563
CC(C)(C)CC(C)(C)c1ccc(OCCOCC[N+](C)(C)Cc2ccccc2)cc1 [Benzethonium chloride]	0.0496
CN1C(=O)OC(C)(C)C1=O	0.409
CCCCNc1c(C(=O)OCC)c(C)nc2c1cnn2CC [Tracazolate hydrochloride]	0.179
COc1ccc([C@@H]2CC(=O)c3c(O)cc(O[C@@H]4O[C@H](CO[C@@H]5O[C@@H](C)[C@H](O)[C@@H](O)[C@H]5O)[C@@H](O)[C@H](O)[C@H]4O)cc3O2)cc1O	0.284
CNCC[C@@H](Oc1cccc2ccccc12)c1cccs1 [(R)-Duloxetine hydrochloride]	0.0934
CN1C(C(=O)Nc2ccccn2)=C(O)c2ccccc2S1(=O)=O	0.282
Cc1cc(C(C)(C)C)c(O)c(C)c1CC1=NCCN1 [Oxymetazoline hydrochloride]	0.416
CCN(CC)CCCC(C)Nc1ccnc2cc(Cl)ccc12 (stereo not given) [Chloroquine diphosphate]	0.246
CCC1(C)CC(=O)NC1=O (stereo not given) [Ethosuximide]	0.417
Cc1cccc(C)c1NC(=O)C(C)N (stereo not given) [Tocainide hydrochloride]	0.433
CCCCC(=O)O[C@H]1CC[C@H]2[C@@H]3CCc4cc(O)ccc4[C@H]3CC[C@]12C [Estradiol Valerate]	0.396
COC(=O)Nc1nc2cc(Sc3ccccc3)ccc2[nH]1	0.434
Cn1c(NCCN(CCO)CCCc2ccc([N+](=O)[O-])cc2)cc(=O)n(C)c1=O	0.428
CN(C)CCC(c1ccc(Br)cc1)c1ccccn1 (stereo not given) [Brompheniramine maleate]	0.302
OC(CCN1CCCCC1)(c1ccccc1)C1CC2C=CC1C2 (stereo not given) [Biperiden hydrochloride]	0.38
CN(C/C=C/C#CC(C)(C)C)Cc1cccc2ccccc12	0.41
CC(=O)N(O)CCCCCNC(=O)CCC(=O)N(O)CCCCCNC(=O)CCC(=O)N(O)CCCCCN [Deferoxamine mesylate]	0.141
